The reported measurements were obtained from patent US20250099420A1.

# study.target: GPR139 (Homo sapiens, UniProt Q6DWJ6)
# Sequence (Q6DWJ6 whole entry): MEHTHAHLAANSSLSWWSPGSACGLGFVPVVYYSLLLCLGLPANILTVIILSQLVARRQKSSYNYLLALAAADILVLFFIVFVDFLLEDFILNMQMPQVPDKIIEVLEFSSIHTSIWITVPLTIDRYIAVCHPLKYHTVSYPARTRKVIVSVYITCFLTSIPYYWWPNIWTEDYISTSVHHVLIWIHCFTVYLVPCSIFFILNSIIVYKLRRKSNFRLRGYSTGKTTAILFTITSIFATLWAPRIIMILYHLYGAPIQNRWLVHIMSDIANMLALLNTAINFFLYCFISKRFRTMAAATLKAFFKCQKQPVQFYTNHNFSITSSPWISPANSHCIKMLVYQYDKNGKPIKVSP
# assay.summary: GPR139 Agonist titration / agonist counterscreen assay (calcium detection, HEK-GPR139 cells)
# Format: cell-based
# Parameters: expressed in transfected cells; host or cells: HEK Aequorin cells, Maxcyte transient transfection
# protocol.conditions: GPR139 Agonist Activity; based on logP
Classes by Lipophilic Efficiency (logP): L: < 4; M: ≥ 4 and < 5; H: ≥ 5

>>> print(df.to_string())
                                    compound  class
 0  O=C(NNC(=O)C1CC1c1ccccc1)Nc1cccc(Cl)c1 (centres unmarked)      M
 1  Cc1ccccc1C(=O)NNC(=O)C(C)Oc1ccc(Cl)cc1Cl (centres unmarked)      L
 2  CSc1cccc(NC(=O)C2C3C=CC4(O3)C2C(=O)N(C(C)c2ccccc2)C4C(=O)NC2CCCCC2)c1 (centres unmarked)      L
 3  O=C(CN1CCN(Cc2ccccc2Cl)C1=O)NCc1ccccc1Cl      M
 4  O=C(CC(c1ccccc1)c1ccccc1)Oc1coc(CSc2ncccn2)cc1=O      L
 5  Cc1onc(-c2ccccc2Cl)c1C(=O)NNC(=O)CSc1ccccc1[N+](=O)[O-]      M
 6   Cc1cc(CC(=O)N/C=C/c2cccc3ccccc23)n[nH]1      M
 7  C=C1CC(C)(c2ccc(OC)cc2)C(=C)C1CC(=O)CC1CCCCC1 (centres unmarked)      H
 8   Cc1ccc(SCC(=O)NNC(=O)CCC(=O)c2cccs2)cc1      M
 9   Cc1ccc(SCC(=O)Nc2nnc(-c3ccccc3Cl)o2)cc1      L
10  COc1ccc(CCNC(=O)Nc2ccc3c(c2)CCCN3C(=O)C2CC2)cc1      M
11  COCCn1c(C)c(C(=O)NC(C)CCc2ccccc2)c2nc3ccccc3nc21 (centres unmarked)      L
12  Cc1ccc2c(c1)CCCN2CC(=O)N(C)c1c(N)n(Cc2ccccc2)c(=O)[nH]c1=O      M
13  O=C(CC(C(=O)N1CCc2ccccc21)n1ccnc1)NCC1COc2ccccc2O1 (centres unmarked)      H
14  CC(Oc1ccc(Cl)cc1Cl)C(=O)NNC(=O)c1ccc(F)cc1 (centres unmarked)      L
15    O=C(Cc1cccc2ccccc12)Nc1nnc(-c2cccs2)o1      L
16        O=C(Cn1cc2c(n1)CCCCC2)NCCCc1ccccc1      L
17  Nc1ccc(C(=O)OCC(=O)NC2CCCc3ccccc32)cc1[N+](=O)[O-] (centres unmarked)      L
18   O=C(CCc1nc2cccnc2n1Cc1cccs1)NCCc1ccccc1      M
19   O=C(CSc1ccc2ccccc2c1)NNC(=O)c1ccc(Br)s1      M
20  CC1(c2ccc3c(c2)OCCO3)NC(=O)C(CC(=O)NCC2CCCCC2)C1=O (centres unmarked)      H
21  Cc1cc(C(=O)NNC(=O)CNC(=O)Cc2cccc3ccccc23)c(C)o1      H

----------
# Test system: parental HEK cells
# assay.summary: HEK parental Agonist Counterscreen Assay (non-transfected cells)
# Assay type: cell-based
# protocol.conditions: HEK Agonist Activity
Parameter Lipophilic Efficiency (logD): see the listing below.
measured.quantity: Lipophilic Efficiency (logD)

                                   compound  experimental_result
0  O=C(CC(C(=O)N1CCc2ccccc21)n1ccnc1)NCC1COc2ccccc2O1 (stereo not drawn)                 3.29
1  CC1(c2ccc3ccccc3c2)NC(=O)C(CC(=O)NCc2ccco2)C1=O (stereo not drawn)                 2.18
2  COc1cc(OC)cc(C(=O)NNC(=O)C(C)Oc2ccc(Cl)cc2Cl)c1 (stereo not drawn)                 1.68
3  Cc1c2cnn(CC(=O)NC(C)c3ccccc3)c(=O)c2c(C)n1Cc1ccc(F)cc1 (stereo not drawn)                 1.03
4     COc1ccccc1OCC(=O)NCCc1ccc2c(c1)CCCN2C                 1.69
5  O=C(Cn1ccc([N+](=O)[O-])n1)NCCc1ccc(Cl)cc1                 2.40
6  COc1ccc(C2(C)NC(=O)N(CC(=O)Nc3cc(C)ccc3C)C2=O)cc1 (stereo not drawn)                 2.34
7  COc1ccccc1CC1(C)NC(=O)N(CC(=O)NC(C)c2cccc(Cl)c2)C1=O (stereo not drawn)                 1.93
8   COc1cccc(C(=O)NNC(=O)COc2ccc(C)cc2Br)c1                 1.98
